Value source: patent US20050221381A1

target: soluble DRB1*0401 molecules (DR4) (Homo sapiens, UniProt P01903+P01911, A100K/A169T/F76Y/I96L/K127E/L162R/M171V/N62H/P40V/Q125Y/R42H/S133A/S149N/S66Y/V115G/V209L/W38E); construct: Soluble HLA class I A*0201 and HLA class II DRA1*0101/DRB1*0101/Ii, DRA1*0101/DRB1*0401/Ii and DRA1*0101/DRB1*0404/Ii molecules were expressed in SC-2 cells; made in house; host or cells: SC-2 cells; assay type: binding; set-up: key: −: no binding; +/−: weak binding; +: intermediate binding; ++: strong binding; settings: individual pp65 15mer, SDS-stability assay

- Sequence: "EPDVYYTSAFVFPTK [Peptide 177]"
  Binding to DRB1*0401: "+"
- Sequence: "ILVSQYTPDSTPCHR [Peptide 56]"
  Binding to DRB1*0401: "++"
- Sequence: "DSTPCHRGDNQLQVQ [Peptide 64]"
  Binding to DRB1*0401: "+"
- Sequence: "RGRLKAESTVAPEED [Peptide 453]"
  Binding to DRB1*0401: "+"
- Sequence: "SQYTPDSTPCHRGDN [Peptide 59]"
  Binding to DRB1*0401: "++"
- Sequence: "MTRGRLKAESTVAPE [Peptide 451]"
  Binding to DRB1*0401: "+"
- Sequence: "LILVSQYTPDSTPCH [Peptide 55]"
  Binding to DRB1*0401: "+"
